Values were extracted from ChEMBL document CHEMBL1148235.

# measurement-description: Bioavailability in rat (dose 1 mg/kg i.v. and 2 mg/kg p.o.)
# Format: ADME, organism-based
# condition-set: in vivo, po
metric-name: bioavailability (%)

| smiles-str | recorded-measurement |
| --- | --- |
| COc1cccc(OC)c1-c1ccc(C[C@H](/N=C(\NC#N)[C@@H]2CCN2S(=O)(=O)c2ccccc2)C(=O)O)cc1 | 3 |

P: COc1cccc(OC)c1-c1ccc(C[C@H](/N=C(\NCC(C)(C)C)[C@@H]2CCN2S(=O)(=O)c2ccccc2)C(=O)O)cc1
Q: COc1cccc(OC)c1-c1ccc(C[C@@H]2N=C([C@@H]3CCN3S(=O)(=O)c3ccccc3)NNC2=O)cc1
Input: Of P versus Q , which is the one with smaller reported bioavailability? Select an item and report its label.
Output: P

###

# target-or-system: Integrin alpha-4/beta-7 (Homo sapiens, UniProt P13612+P26010)
# Sequence (P13612 whole entry): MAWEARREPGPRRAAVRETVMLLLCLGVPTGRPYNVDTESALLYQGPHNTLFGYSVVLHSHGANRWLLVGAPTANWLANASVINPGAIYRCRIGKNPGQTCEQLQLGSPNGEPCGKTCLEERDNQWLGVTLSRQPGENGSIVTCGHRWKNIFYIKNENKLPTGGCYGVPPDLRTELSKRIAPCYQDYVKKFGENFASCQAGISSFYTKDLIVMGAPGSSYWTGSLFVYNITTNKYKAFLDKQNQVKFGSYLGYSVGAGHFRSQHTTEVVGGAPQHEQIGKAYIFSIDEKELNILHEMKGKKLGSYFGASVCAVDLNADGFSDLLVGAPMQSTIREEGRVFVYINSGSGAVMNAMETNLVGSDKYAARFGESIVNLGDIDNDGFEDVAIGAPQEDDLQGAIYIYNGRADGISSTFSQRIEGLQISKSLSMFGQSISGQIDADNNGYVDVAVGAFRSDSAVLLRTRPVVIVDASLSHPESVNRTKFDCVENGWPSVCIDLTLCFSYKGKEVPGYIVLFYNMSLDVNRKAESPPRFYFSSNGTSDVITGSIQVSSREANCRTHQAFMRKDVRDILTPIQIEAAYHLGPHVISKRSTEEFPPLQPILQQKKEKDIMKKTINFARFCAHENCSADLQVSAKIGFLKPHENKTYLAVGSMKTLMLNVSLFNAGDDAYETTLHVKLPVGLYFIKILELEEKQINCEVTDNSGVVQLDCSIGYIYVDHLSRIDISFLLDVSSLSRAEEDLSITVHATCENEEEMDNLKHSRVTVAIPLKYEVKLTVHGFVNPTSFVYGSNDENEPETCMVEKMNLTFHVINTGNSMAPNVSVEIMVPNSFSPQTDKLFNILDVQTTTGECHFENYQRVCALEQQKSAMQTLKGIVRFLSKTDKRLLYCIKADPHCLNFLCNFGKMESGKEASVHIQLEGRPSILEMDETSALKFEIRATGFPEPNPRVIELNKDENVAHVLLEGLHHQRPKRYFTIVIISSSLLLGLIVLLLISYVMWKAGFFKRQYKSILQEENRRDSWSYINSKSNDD
# Sequence (P26010 whole entry): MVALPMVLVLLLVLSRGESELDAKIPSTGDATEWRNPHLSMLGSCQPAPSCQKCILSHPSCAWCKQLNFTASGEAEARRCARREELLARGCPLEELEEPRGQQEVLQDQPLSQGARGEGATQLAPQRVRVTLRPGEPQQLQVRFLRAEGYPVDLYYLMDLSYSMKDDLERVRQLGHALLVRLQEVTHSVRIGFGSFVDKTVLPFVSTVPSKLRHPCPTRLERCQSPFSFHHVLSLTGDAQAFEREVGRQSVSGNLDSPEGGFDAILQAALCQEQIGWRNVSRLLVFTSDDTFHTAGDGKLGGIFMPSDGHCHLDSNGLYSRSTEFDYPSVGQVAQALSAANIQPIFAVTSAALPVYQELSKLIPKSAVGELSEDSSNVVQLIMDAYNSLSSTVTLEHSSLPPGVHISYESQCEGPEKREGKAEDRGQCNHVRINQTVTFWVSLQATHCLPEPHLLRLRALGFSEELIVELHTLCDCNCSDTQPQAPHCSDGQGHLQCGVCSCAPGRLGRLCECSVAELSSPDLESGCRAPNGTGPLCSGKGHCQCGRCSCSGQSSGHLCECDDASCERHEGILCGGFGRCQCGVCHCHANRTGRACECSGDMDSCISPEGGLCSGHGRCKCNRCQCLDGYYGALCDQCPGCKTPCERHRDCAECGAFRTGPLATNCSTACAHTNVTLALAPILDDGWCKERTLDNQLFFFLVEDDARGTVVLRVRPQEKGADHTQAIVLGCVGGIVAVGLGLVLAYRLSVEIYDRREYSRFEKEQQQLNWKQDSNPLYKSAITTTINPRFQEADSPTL
# measurement-description: Inhibitory activity of compound against alpha4-beta7 integrin using MAdCAM-Ig ligand
metric-name: IC50 (nM)

# count of solved cases: 8
| smiles-str | unit-label | IC50 |
| --- | --- | --- |
| COc1cccc(OC)c1-c1ccc(C[C@H](/N=C(\NCC(F)(F)F)[C@@H]2CCN2S(=O)(=O)c2ccccc2)C(=O)O)cc1 | nM | 27 |
| CN/C(=N\[C@@H](Cc1ccc(-c2c(OC)cccc2OC)cc1)C(=O)O)[C@@H]1CCN1S(=O)(=O)c1cc(Cl)cc(Cl)c1 | nM | 21 |
| COc1cccc(OC)c1-c1ccc(C[C@H](OC(=O)[C@@H]2CCN2S(=O)(=O)c2cc(Cl)cc(Cl)c2)C(=O)O)cc1 | nM | 3000 |
| COc1cccc(OC)c1-c1ccc(C[C@H](/N=C(\NS(C)(=O)=O)[C@@H]2CCN2S(=O)(=O)c2ccccc2)C(=O)O)cc1 | nM | 2.2 |
| COc1cccc(OC)c1-c1ccc(C[C@H](/N=C(\NO)[C@@H]2CCN2S(=O)(=O)c2ccccc2)C(=O)O)cc1 | nM | 98 |
| COc1cccc(OC)c1-c1ccc(C[C@@H]2/N=C(/[C@@H]3CCN3S(=O)(=O)c3ccccc3)NCc3nccn3C2=O)cc1 | nM | 4090 |
| COc1cccc(OC)c1-c1ccc(C[C@H](/N=C(\NCc2ccccn2)[C@@H]2CCN2S(=O)(=O)c2ccccc2)C(=O)O)cc1 | nM | 35 |
| COc1cccc(OC)c1-c1ccc(C[C@H](/N=C(\NCC(C)(C)C)[C@@H]2CCN2S(=O)(=O)c2ccccc2)C(=O)O)cc1 | nM | 120 |

a: COCCN/C(=N\[C@@H](Cc1ccc(-c2c(OC)cccc2OC)cc1)C(=O)O)[C@@H]1CCN1S(=O)(=O)c1ccccc1
b: COc1cccc(OC)c1-c1ccc(C[C@H](NC[C@@H]2CCCN2S(=O)(=O)c2cc(Cl)cc(Cl)c2)C(=O)O)cc1
Input: Quick one: lower IC50, a or b ? Record your answer as the label of the chosen record.
Output: a
(a: 65 nM, b: 8400 nM)

###

# measurement-description: Partition coefficient (logD)
# Format: physicochemical
# condition-set: octanol/water
metric-name: logD

Consider the worked cases shown below.
| smiles-str | metric-name | recorded-measurement |
| --- | --- | --- |
| COc1cccc(OC)c1-c1ccc(C[C@H](/N=C(\NCC(F)(F)F)[C@@H]2CCN2S(=O)(=O)c2ccccc2)C(=O)O)cc1 | logD | 3.3 |
| COc1cccc(OC)c1-c1ccc(C[C@H](NC(=O)[C@@H]2CCN2S(=O)(=O)c2cc(Cl)cc(Cl)c2)C(=O)O)cc1 | logD | 4 |
| CON/C(=N\[C@@H](Cc1ccc(-c2c(OC)cccc2OC)cc1)C(=O)O)[C@@H]1CCN1S(=O)(=O)c1ccccc1 | logD | 2.8 |
| COc1cccc(OC)c1-c1ccc(C[C@@H]2N=C([C@@H]3CCN3S(=O)(=O)c3ccccc3)NNC2=O)cc1 | logD | 3.2 |
| COc1cccc(OC)c1-c1ccc(C[C@H](/N=C(\NO)[C@@H]2CCN2S(=O)(=O)c2ccccc2)C(=O)O)cc1 | logD | 2.3 |

P: COc1cccc(OC)c1-c1ccc(C[C@H](/N=C(\NC#N)[C@@H]2CCN2S(=O)(=O)c2ccccc2)C(=O)O)cc1
Q: COc1cccc(OC)c1-c1ccc(C[C@H](/N=C(\N)[C@@H]2CCN2S(=O)(=O)c2cc(Cl)cc(Cl)c2)C(=O)O)cc1
Input: When the recorded logD values are compared, which is smaller: that of P or that of Q ? Your choice should be expressed through its label.
Output: P
